# target: Aldehyde dehydrogenase 1A1 (Homo sapiens)
# protocol_notes: qHTS Assay for Inhibitors of Aldehyde Dehydrogenase 1 (ALDH1A1)
# study_conditions: Purified ALDH1A1, NADH fluorescence, propionaldehyde substrate; series mostly up to 75.3 µM
About 16,000 (7.3%) of roughly 220,000 compounds were called active. About 25% were inconclusive and are not listed. The call rests on the fitted dose curve; in most records, active means well fitted inhibition curve with a large enough effect (not every such curve was filed as active); inconclusive means small, poorly fitted or top-dose-only effect, or another doubt; inactive means no such curve, though single readings can be large or run the other way. The list comes from a sample in which actives are over-represented; it also holds close analogues and randomly drawn compounds.
Outcome field: choose from active, inactive

Sample answers from the record:
O=C(Nc1ccn(Cc2ccccc2)n1)c1cccc(F)c1
inactive
Cc1cccc(-n2c(=O)c3c(C)c(C)sc3n(CC(N)=O)c2=O)c1
inactive
CCn1cc(C(=O)NCc2ccc3c(c2)OCO3)c2cc(OC)c(OC)cc2c1=O
inactive
CCOc1cccc(C(=O)Nc2cccnc2)c1
inactive
Cc1ccc(Oc2ccc3c(c2)C(=O)N(c2cccc4cccnc24)C3=O)cc1
active

# input for lookup
Q: Hi, sorry to bother you, what did the test record for "O=C(Nc1nc(-c2ccc3c(c2)OCO3)cs1)c1ccncc1" ?
Result: inactive

Origin of the recorded values: PubChem BioAssay AID1030
